Cited source: PubChem BioAssay (NCATS)

Experiment: qHTS of pediatric cancer cell lines to identify multiple opportunities for drug repurposing: Primary screen for OHS-50 cells (AID 1347103); note: nearly all actives have a fitted effect of over 40% in size
Settings: OHS-50 osteosarcoma viability, CellTiter-Glo luminescence, 48 h; series mostly up to 57.3 µM
Records with an inconclusive call do not appear. Active and inactive are the calls of the source. Calls come from the whole dose curve; as a rule, active = well fitted cell-killing curve with a large enough effect; inconclusive = small, poorly fitted or top-dose-only effect; inactive = no such curve, though single readings can be large or run the other way.
Give one outcome, nothing more. List: active, inactive

• Cc1ncc(CO)c(C=O)c1O = inactive

query: Outcome? CCCCCCCCCCCCCC[N+](C)(C)Cc1ccccc1
result: active

query: Identify the outcome logged in this assay for the compound shown: CCN(CC)CCOC(=O)C1(c2ccccc2)CCCC1
result: inactive

###

Assay: qHTS of pediatric cancer cell lines to identify multiple opportunities for drug repurposing: Primary screen for LAN-5 cells (AID 1347100); note: potency is the fitted concentration of half-maximal effect
Conditions: LAN-5 neuroblastoma viability, CellTiter-Glo luminescence, 48 h; series mostly up to 46 µM
Results filed as inconclusive are left out. Active and inactive are the calls of the source. Calls come from the whole dose curve; as a rule, active = well fitted cell-killing curve with a large enough effect; inconclusive = small, poorly fitted or top-dose-only effect; inactive = no such curve, though single readings can be large or run the other way.
Quantity Kind: Potency

Below, each entry is followed by its recorded Potency result.
* Cc1cccc(C)c1NC(=O)c1ccccc1C(=O)O | inactive
* O=C(O)Cc1csc(-c2ccc(Cl)cc2)n1 | inactive
* CCC1Nc2cc(Cl)c(S(N)(=O)=O)cc2S(=O)(=O)N1 (stereo not given) | inactive
* CCOC(=O)[C@@](C)(N)Cc1ccc(O)c(O)c1 | inactive
* CCCCCCCCOc1ccc(C(=O)c2ccccc2)c(O)c1 | inactive

query: Form field: reported Potency of FC1(F)C(F)(F)C(F)(F)C2(F)C(F)(F)C(F)(F)C(F)(F)C(F)(F)C2(F)C1(F)F (stereo not given)
result: inactive

query: Fill in the blank: the reported Potency of C[C@H]1O[C@@H](O[C@H]2CC[C@@]3(C)[C@H](CC[C@@H]4[C@@H]3C[C@@H](O)[C@]3(C)[C@@H](C5=CC(=O)OC5)CC[C@]43O)C2)C[C@H](O)[C@@H]1O[C@H]1C[C@H](O)[C@H](O[C@H]2C[C@H](O)[C@H](O[C@@H]3O[C@H](CO)[C@@H](O)[C@H](O)[C@H]3O)[C@@H](C)O2)[C@@H](C)O1 is ____.
result: 0.237 µM (active)

query: Field request: Potency | item: CCN(CC)CCNc1ccc(CO)c2sc3ccccc3c(=O)c12
result: 13.3 µM (active)

query: I have this compound here, N#C/C(=C1\SCC(c2ccccc2Cl)S1)n1ccnc1 (stereo not given) , and I need its recorded Potency.
result: inactive

query: I would be grateful if you could share the reported Potency for NS(=O)(=O)Cc1noc2ccccc12 .
result: inactive
